target: HIV-1 nucleocapsid protein (NC) (HIV-1 NL4-3, UniProt P12493 378-432); experiment: ITC
pKd: −log10 of the molar value.
Assay endpoint: pKd

UGUUCCCGUCU (ssRNA) [U5GUG (G108U)] ... 6.62
